Assay: Cytotoxicity against human L3.6PL cells assessed as growth inhibition after 48 hrs by MTS assay in presence of aminoguanidine
Format: cell-based
Settings: human, l3.6pl
Recorded IC10 by entry
State just the number; it will be interpreted in µM.

[[record]]
smi = "Cl.NCCCCNCCCCNCc1cc(CNCCCCNCCCCN)cc(CNCCCCNCCCCN)c1"
recorded_number = 10

[[record]]
smi = "Cl.NCCCCNCCCCNCCCCNC(=O)c1cc(C(=O)NCCCCNCCCCNCCCCN)cc(C(=O)NCCCCNCCCCNCCCCN)c1"
recorded_number = 1

[[record]]
smi = "Cl.NCCCNCCCCNCCCNC(=O)c1cc(C(=O)NCCCNCCCCNCCCN)cc(C(=O)NCCCNCCCCNCCCN)c1"
recorded_number = 8

[[record]]
smi = "CNCCCCNCCCCNCc1cc(CNCCCCNCCCCNC)cc(CNCCCCNCCCCNC)c1.Cl"
recorded_number = 10

[[record]]
smi = "Cl.NCCCCNCCCCNCCCCNCc1cccc(CNCCCCNCCCCNCCCCN)c1"
recorded_number = 0.01


For the next question, use this molecule.
Entry Cl.NCCCCNCCCCNCc1cccc(CNCCCCNCCCCN)c1 , IC10 reported as 0.1
